These data points were gathered from the supplement of paper PMC6555819.

Test system: FXR:RXRa (NR concentration 270 nM, RXRa partner concentration 90 nM)
procedure.details: PBM binding z-score (relative to random genomic background probes); higher = stronger binding; sequences stand for … in GC…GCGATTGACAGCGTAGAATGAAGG
Decision: PBM binding z-score compared against 0.07; not below it gives yes, below it gives no.

Record excerpt, results attached:
record.sequence: AGTCAAAGTTCACTAGGAAACGTAAGATTCAGCT
system.name: FXR:RXRa (NR concentration 270 nM, RXRa partner concentration 90 nM)
classification: yes

record.sequence: CCGAGTAGGTTATGCGGCATTCAGGCAACGGTGA
system.name: FXR:RXRa (NR concentration 270 nM, RXRa partner concentration 90 nM)
classification: no

record.sequence: TCTAGTAGGCCAGAGGGTCACTCAAGAGGTACGG
system.name: FXR:RXRa (NR concentration 270 nM, RXRa partner concentration 90 nM)
classification: yes

record.sequence: TAGCCTATGTCATTGGGCCAGTATAGTACGCATC
system.name: FXR:RXRa (NR concentration 270 nM, RXRa partner concentration 90 nM)
classification: no

Q) Would you say TCTTGGAGATCAAAGGTTAAGAAAGCCGAAGCCT shows PBM binding z-score at minimum 0.07?
A) yes

Q) PBM binding z-score >= 0.07 for CGTCCAAGGTCAGCAGGACAGTGAAAGCGACGTG ?
A) yes
